assay: HUVEC growth inhibition – cell-based, human, primary screen (AID 575); conditions: HUVEC proliferation, CellTiter-Glo luminescence, 72 h; at 10 µM;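 further: 100% = median of untreated cell wells with 0.1% DMSO on each plate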
Calls of active or inactive are those of the source.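 How the source made its calls: active means viability at or below 30% in both replicate assays; inconclusive means viability at or below 30% in just one of the two assays; inactive means the rest.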
Respond with a class label; see true = active, false = inactive

Completed entries (count: 5):
>>> df
                                   compound  assigned_class
0     CC(C)C(=O)c1cn(Cc2ccccc2C#N)c2ccccc12           false
1         O=C(c1ccncc1)C12CN3CN(CN(C3)C1)C2           false
2  O=C(COc1ccc2ccccc2c1)N1CCN(C2CCN(Cc3ccccc3)CC2)CC1           false
3  CN(C)[C@@H]1C(=O)C(C(N)=O)=C(O)[C@@]2(O)C(=O)C3=C(O)c4c(O)ccc(Cl)c4[C@@](C)(O)C3C[C@@H]12 (stereo not given in full)           false
4  CCOc1cc2[nH]c(=S)n(CCCC(=O)N3CCC4(CC3)OCCO4)c(=O)c2cc1OCC           false

IN: Test call, this compound: CC(=O)[C@H]1CC[C@H]2[C@@H]3CC[C@H]4C[C@H](O)CC[C@]4(C)[C@H]3C(=O)C[C@]12C
OUT: false

IN: Query CC(C)[C@@]1(NC(=O)[C@@H]2C[C@@H]3c4cccc5[nH]cc(c45)C[C@H]3N(C)C2)O[C@@]2(O)[C@@H]3CCCN3C(=O)[C@H](Cc3ccccc3)N2C1=O next
OUT: true

IN: Query O=C(O)CCCc1ccc(N(CCCl)CCCl)cc1 next
OUT: false

IN: Query Cc1ccccc1-n1c(O)c(C=NCCN2CCOCC2)c(=O)[nH]c1=O next
OUT: false

---

target: Pantothenate synthetase (Mycobacterium tuberculosis (strain ATCC 25618 / H37Rv)) (UniProt P9WIL5); experiment: Coupled enzyme confirmation of inhibitors against recombinant Mtb PanC (AID 375); conditions: coupled enzyme assay; at 10 µM, active compounds read high;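 further: 0% = full reaction with vehicle and 100% = no enzyme background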
Sequence (P9WIL5 whole entry, looked up): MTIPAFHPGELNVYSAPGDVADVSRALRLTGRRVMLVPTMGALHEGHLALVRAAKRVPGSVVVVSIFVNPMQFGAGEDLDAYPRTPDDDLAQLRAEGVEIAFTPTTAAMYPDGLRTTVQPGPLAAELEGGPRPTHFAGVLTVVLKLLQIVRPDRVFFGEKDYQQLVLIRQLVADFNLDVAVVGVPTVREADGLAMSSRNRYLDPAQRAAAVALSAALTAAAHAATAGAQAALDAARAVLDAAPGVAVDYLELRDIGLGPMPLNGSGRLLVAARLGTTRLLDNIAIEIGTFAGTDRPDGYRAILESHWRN
measured-parameter: inhibition (%)
Field format: number, assumed %, no unit text.

IN: Value lookup for inhibition; key = Cc1ccc(NC(=O)c2ccccc2F)nc1
OUT: 2

IN: Query Cn1c(=O)[nH]c(=O)c2[nH]c(NCCCN3CCOCC3)nc21 next
OUT: 0

IN: Query CCC(C)(C)n1nnnc1C(c1cc2cc(C)ccc2[nH]c1=O)N1CCCC1 (configuration not stated) next
OUT: 8

IN: Query O=C(Nc1ccc(N2CCOCC2)cc1)c1cc2ccccc2o1 next
OUT: 0

---

assay: viability of PTEN-null HCT116 cells – cell-based, HCT116 clonal line, CellTiter-Glo, pilot screen (AID 824); conditions: HCT116 PTEN-deleted viability, 60 h, at 10 µM, active compounds read low;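 further: 0% = 20 µM Hyamine control and 100% = vehicle cell control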
Records with an inconclusive call do not appear. The source made the active and inactive calls.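 The calls were made as follows: active = viability at or below 27.92% in each of two runs, the all-compound median minus 4 SD; inconclusive = no clear call, values can overlap the other calls; inactive = the rest.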
# viability values compiled below

>>> df
                                   compound  measured_parameter  experimental_result
0  O=C(c1ccccc1)c1cn(CC(=O)N2CCCC2)c2ccccc12           viability       92% (inactive)

IN: Value lookup for viability; key = CCOc1ccc(-n2c(CC)nc3ccccc3c2=O)cc1
OUT: 89.8% (inactive)

IN: Query COc1ccc2[nH]c(C)c(CCN3CCC(=O)C(C)C3C)c2c1 (stereo not drawn) next
OUT: 93.1% (inactive)

Sourced from PubChem BioAssay
